system: Human immunodeficiency virus; test: Ratio of CC50 required to reduce the viability of mock-infected human CEM cells to EC50 required to inhibit HTLV-III B induced cytopathicity in that cells; type: functional, Human immunodeficiency virus 1, CCRF-CEM
Reported Selectivity index values for a set of molecules

MOLECULE	Selectivity index
CCN(CC)C(=S)N/N=C1\C(=O)N(CN2CCN(Cc3ccccc3)CC2)c2ccccc21	4.12
CCN(CC)C(=S)N/N=C1\C(=O)N(CN2CCN(c3ccc(F)cc3)CC2)c2ccccc21	<1
CCN(CC)C(=S)N/N=C1\C(=O)N(CN(C)C)c2ccccc21	<1
CCN(CC)C(=S)N/N=C1\C(=O)N(CN2CCN(c3cc4c(cc3F)c(=O)c(C(=O)O)cn4CC)CC2)c2ccccc21	12.02
CCN(CC)C(=S)N/N=C1\C(=O)N(CN2CCN(c3ccc([N+](=O)[O-])cc3)CC2)c2ccccc21	<1
CCN(CC)C(=S)N/N=C1\C(=O)N(CN2CCN(c3ncccn3)CC2)c2ccccc21	<1
CCN(CC)C(=S)N/N=C1\C(=O)N(CN2CCN(c3cccc(C(F)(F)F)c3)CC2)c2ccccc21	17.14
O=C1Nc2ccc(Cl)cc2[C@@](C#CC2CC2)(C(F)(F)F)O1 [EFAVIRENZ]	>256
CCN(CC)C(=S)N/N=C1\C(=O)N(CN(Cc2ccccc2)Cc2ccccc2)c2ccccc21	<1
CCN(CC)C(=S)N/N=C1\C(=O)N(CN2CC(C)OC(C)C2)c2ccccc21 (stereo not given)	<1
